Test system: ULK1
Parameters: species or system human, MV4-11 + K-562 + COLO205 + SK-N-BE2 + OVCAR-8
CONDITION DETAILS: read-out: apparent Kd; compound concentrations:100 nM and 1000 nM (sheet 'Samples'); n = 1
RECORDED METRIC: potency estimated from few doses (µM)
# unit: µM | format: bare number

Problem: So what does the record say about potency estimated from few doses for `Fc1ccc(-c2c(-c3ccncc3)[nH]c3nccnc23)cc1` ?
Result: 1.52

Problem: So what does the record say about potency estimated from few doses for `CC(=O)N[C@@H](Cc1ccc(OP(=O)(O)O)cc1)C(=O)N[C@H]1CCC(=O)N2CCC[C@@H](C(=O)NCc3ccc(Cl)cc3)N2C1=O` ?
Result: 1.61

Problem: So what does the record say about potency estimated from few doses for CNC(=O)c1ccccc1Nc1nc(Nc2ccc(N3CCOCC3)cc2)ncc1Cl.Cl [GSK1576028A] ?
Result: 1.42

###

Could you please report measured potency estimated from few doses for the items listed next?
Test system: FLT3
Design: species or system human, MV4-11 + K-562 + COLO205 + SK-N-BE2 + OVCAR-8
CONDITION DETAILS: read-out: apparent Kd; compound concentrations:100 nM and 1000 nM (sheet 'Samples'); n = 1
# unit: µM | format: bare number

Problem: So what does the record say about potency estimated from few doses for CCN(CC)CCOc1ccc(Nc2ncc3cc(-c4c(Cl)cccc4Cl)c(=O)n(C)c3n2)cc1 [SB-601273] ?
Result: 0.891

Problem: So what does the record say about potency estimated from few doses for CN(C)C/C=C/C(=O)Nc1ccc(C(=O)Nc2cccc(Nc3ncc(Cl)c(-c4c[nH]c5ccccc45)n3)c2)cc1 [THZ1] ?
Result: 1.31

Problem: So what does the record say about potency estimated from few doses for C/C(Nc1ccc(S(N)(=O)=O)cc1)=C1/C(=O)Nc2ccccc21 [GW335962X] ?
Result: 0.524

Problem: So what does the record say about potency estimated from few doses for C[C@@H](Oc1cc(-n2cnc3cc(-c4cnn(C)c4)ccc32)sc1C(N)=O)c1ccccc1Cl [GSK580432A] ?
Result: 1.3

Problem: So what does the record say about potency estimated from few doses for O=C1NC(=O)C(N2CCc3ccccc32)=C1c1ccccc1Cl [SB-373598] ?
Result: 1.5

Problem: So what does the record say about potency estimated from few doses for Cl.Cl.NCC(C(=O)Nc1cc(Br)c(-c2ccnc3[nH]ccc23)s1)c1ccccc1.NCC(C(=O)Nc1cc(Br)c(-c2ccnc3[nH]ccc23)s1)c1ccccc1 (stereo not shown) [GSK1269851A] ?
Result: 1.45

Problem: So what does the record say about potency estimated from few doses for CCS(=O)(=O)c1ccc(OC)c(Nc2ncc(-c3cccc(OC)c3)o2)c1 [GW580509X] ?
Result: 1.13

###

Test system: EGFR
Set-up: species or system human, MV4-11 + K-562 + COLO205 + SK-N-BE2 + OVCAR-8
CONDITION DETAILS: read-out: apparent Kd; compound concentrations:100 nM and 1000 nM (sheet 'Samples'); n = 1
Could you please report measured potency estimated from few doses for the items listed next?
# unit: nM | format: bare number

Problem: So what does the record say about potency estimated from few doses for COc1cc2ncnc(Nc3ccc4c(cnn4Cc4ccccc4)c3)c2cc1OC.Cl [GW282449A] ?
Result: 1.29

Problem: So what does the record say about potency estimated from few doses for CS(=O)(=O)Cc1ccc(Nc2nccc(-c3c(-c4cccc(NC(=O)C5CCCCC5)c4)nn4ncccc34)n2)cc1 [GSK350559A] ?
Result: 1890

Problem: So what does the record say about potency estimated from few doses for CNC(=O)c1ccccc1Nc1nc(Nc2ccc(N3CCOCC3)cc2)ncc1Cl.Cl [GSK1576028A] ?
Result: 580

Problem: So what does the record say about potency estimated from few doses for Cl.c1ccc(Cc2nc3ccc(Nc4ncnc5ccccc45)cc3[nH]2)cc1 [GR269666A_KCGS] ?
Result: 76

Problem: So what does the record say about potency estimated from few doses for CS(=O)(=O)CCNCc1ccc(-c2ccc3ncnc(Nc4ccc(OCc5ccccc5)c(Cl)c4)c3c2)o1.Cl [GW574783B_PKIS1] ?
Result: 156

Problem: So what does the record say about potency estimated from few doses for Cl.O=S1CCN(Cc2ccc(-c3ccc4ncnc(Nc5ccc(OCc6ccccc6)c(F)c5)c4c3)o2)CC1 [GW576924A] ?
Result: 28.8

###

Test system: RIOK2
Parameters: species or system human, MV4-11 + K-562 + COLO205 + SK-N-BE2 + OVCAR-8
CONDITION DETAILS: read-out: apparent Kd; compound concentrations:100 nM and 1000 nM (sheet 'Samples'); n = 1
RECORDED METRIC: potency estimated from few doses

Problem: So what does the record say about potency estimated from few doses for CC(C)c1ccc(Nc2nccc(-c3cnn4ncccc34)n2)cc1 [GW805758X] ?
Result: 1700 nM

Problem: So what does the record say about potency estimated from few doses for O=C1NC(=O)C(c2ccc(Cl)cc2)=C1Nc1cccc(Cl)c1 [SB-317651] ?
Result: 1500 nM

Problem: So what does the record say about potency estimated from few doses for O=c1cc(N2CCOCC2)nc2n(Cc3cccc(F)c3)ccn12 [GSK2297430A] ?
Result: 1490 nM

Problem: So what does the record say about potency estimated from few doses for O=C(O)C(F)(F)F.O=C(O[C@H]1CN[C@H](C#Cc2cc3ncnc(Nc4ccc(Cc5ccccc5)cc4)c3s2)C1)N1CCOCC1 [GSK238583A] ?
Result: 2420 nM

Problem: So what does the record say about potency estimated from few doses for COC(=O)Nc1nc2ccc(Oc3ccc(CC(=O)Nc4cc(C(F)(F)F)ccc4F)cc3)cc2[nH]1 [GW680903X] ?
Result: 1760 nM

Problem: So what does the record say about potency estimated from few doses for CNc1nc(-c2ccc3c(N)n[nH]c3c2)cc(N2C[C@@H](C(=O)NC3CCCCC3)CC[C@H]2C)n1 [GSK2334470] ?
Result: 2110 nM

Problem: So what does the record say about potency estimated from few doses for N#Cc1cccc(Nc2nccc(-c3cnn4ncccc34)n2)c1 [GW778894X] ?
Result: 75.3 nM

Problem: So what does the record say about potency estimated from few doses for NS(=O)(=O)c1ccc(Nc2ncc(-c3ccccc3)o2)cc1 [GW572399X] ?
Result: 2160 nM

Problem: So what does the record say about potency estimated from few doses for CC(=O)c1c(C)c2cnc(Nc3ccc(N4CCNCC4)cn3)nc2n(C2CCCC2)c1=O [PFE-PKIS_32] ?
Result: 2040 nM

Problem: So what does the record say about potency estimated from few doses for COc1ccccc1-c1cc(/C=C2\C(=O)Nc3ncc(Br)cc32)cc(Br)c1O [GW442130X] ?
Result: 1450 nM

Problem: So what does the record say about potency estimated from few doses for NCCNS(=O)(=O)c1ccc(-c2ccnc3[nH]ccc23)cc1 [GSK977617A] ?
Result: 1170 nM

Problem: So what does the record say about potency estimated from few doses for CC(=O)N[C@@H](Cc1ccc(OP(=O)(O)O)cc1)C(=O)N[C@H]1CCC(=O)N2CCC[C@@H](C(=O)NCc3ccc(Cl)cc3)N2C1=O [RO0325308-000] ?
Result: 141 nM

Problem: So what does the record say about potency estimated from few doses for Cc1cc(NC(=O)c2cccc(NC(=O)/C=C/CN(C)C)c2)ccc1Nc1nccc(-c2cccnc2)n1 [JNK-IN-7] ?
Result: 720 nM

Problem: So what does the record say about potency estimated from few doses for Nc1c(C(=O)c2ccccc2)cnn1-c1ccc(F)cc1 [RO1151246-000] ?
Result: 1700 nM

Problem: So what does the record say about potency estimated from few doses for CS(=O)(=O)Nc1ccc(-c2ccnc3[nH]ccc23)cc1 [GSK993273A] ?
Result: 1670 nM

Problem: So what does the record say about potency estimated from few doses for CN1CCC(C(=O)Nc2n[nH]c3nc(-c4ccc(O)cc4)c(Br)cc23)CC1 [SB-732881] ?
Result: 2210 nM

Problem: So what does the record say about potency estimated from few doses for Cc1cccc(-c2cc(-c3c[nH]nc3-c3ccccn3)ccn2)c1 [GW679395X] ?
Result: 1630 nM

###

Tested on: PAK4
Design: species or system human, MV4-11 + K-562 + COLO205 + SK-N-BE2 + OVCAR-8
CONDITION DETAILS: read-out: apparent Kd; compound concentrations:100 nM and 1000 nM (sheet 'Samples'); n = 1
So basically, if potency estimated from few doses comes in under 700 nM it's Criterion met, and if it's 700 nM or more it's Criterion not met.

Problem: I'd appreciate it if you could check whether CCn1c(-c2nonc2N)nc2c(C#CC(C)(C)O)nc(OCCN)cc21.CCn1c(-c2nonc2N)nc2c(C#CC(C)(C)O)nc(OCCN)cc21.Cl.Cl [GSK902056A] has potency estimated from few doses smaller than 700 nM.
Result: Criterion met

Problem: I'd appreciate it if you could check whether `O=C1NC(=O)C(N2CCc3ccccc32)=C1c1ccccc1Cl` has potency estimated from few doses smaller than 700 nM.
Result: Criterion met

Problem: I'd appreciate it if you could check whether Cc1cccc(Nc2nc(N[C@H]3CCCC[C@H]3N)ncc2C(N)=O)c1.Cl [GSK986310C] has potency estimated from few doses smaller than 700 nM.
Result: Criterion met

Problem: I'd appreciate it if you could check whether O=C(O)C(F)(F)F.O=c1[nH]ccc2nc(N[C@@H]3CCNC3)nc(Nc3cc(Cl)cc(Cl)c3)c12 [GSK2188764A] has potency estimated from few doses smaller than 700 nM.
Result: Criterion met

Problem: I'd appreciate it if you could check whether COc1cc2ncn(-c3cc(OCCCc4ccccc4)c(C(N)=O)s3)c2cc1OC [GSK205189A] has potency estimated from few doses smaller than 700 nM.
Result: Criterion not met

Problem: I'd appreciate it if you could check whether CCn1c(-c2nonc2N)nc2c(C#CC(C)(C)O)nc(O[C@@H](CN)c3ccccc3)cc21.O=C(O)C(F)(F)F [GSK1007102B] has potency estimated from few doses smaller than 700 nM.
Result: Criterion met

Problem: I'd appreciate it if you could check whether Cc1ccc2c(-c3ccncc3)c(-c3ccc(F)cc3)nn2c1.Cl [GW461484A] has potency estimated from few doses smaller than 700 nM.
Result: Criterion not met
